system: RARb:RXRa (NR concentration 270 nM, RXRa partner concentration 90 nM); assay: PBM binding z-score (relative to random genomic background probes); higher = stronger binding; sequences stand for … in GC…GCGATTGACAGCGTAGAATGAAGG
The sequences listed here are annotated with their PBM binding z-score.

[
  {
    "sequence-record": "TCTTGTAGATCAAGCAGGTTAATAAAGCCTGAGT",
    "subject-of-test": "RARb:RXRa (NR concentration 270 nM, RXRa partner concentration 90 nM)",
    "reported-value": -0.0389
  },
  {
    "sequence-record": "ATCTCTAGGTAACAAGTTCAGTGATAGAGAGGAC",
    "subject-of-test": "RARb:RXRa (NR concentration 270 nM, RXRa partner concentration 90 nM)",
    "reported-value": 1.69
  },
  {
    "sequence-record": "CGTCCAACGTCAGAGAGGTCAGTGAATGCCGAGT",
    "subject-of-test": "RARb:RXRa (NR concentration 270 nM, RXRa partner concentration 90 nM)",
    "reported-value": 2.92
  },
  {
    "sequence-record": "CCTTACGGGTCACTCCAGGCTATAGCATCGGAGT",
    "subject-of-test": "RARb:RXRa (NR concentration 270 nM, RXRa partner concentration 90 nM)",
    "reported-value": 3.51
  },
  {
    "sequence-record": "TGAATGAGGTTAAAGATCCGGGAACGTGGCGTCG",
    "subject-of-test": "RARb:RXRa (NR concentration 270 nM, RXRa partner concentration 90 nM)",
    "reported-value": 1.72
  }
]

# PBM binding z-score of CTCGAAAGGTCGTGCTCAGGTGAGTAGACCAAAC = 3.91

* * *

system: PPARg:RXRa (NR concentration 180 nM, RXRa partner concentration 90 nM); assay: PBM binding z-score (relative to random genomic background probes); higher = stronger binding; sequences stand for … in GC…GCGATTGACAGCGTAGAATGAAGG
// PBM binding z-score lookup, one value per entry

Known results for sequences:
[
  {
    "sequence-record": "ACTCACGGGTCAACGAGGTTATAGCACGCGTATA",
    "PBM binding z-score": 4.39
  },
  {
    "sequence-record": "GATACAGGGTCAAGGCCAGACTACGCGTATTGAT",
    "PBM binding z-score": 6.16
  },
  {
    "sequence-record": "CGTCCAAGGTCAATGCTAGGTCGGTGAAAGCATT",
    "PBM binding z-score": 3.29
  },
  {
    "sequence-record": "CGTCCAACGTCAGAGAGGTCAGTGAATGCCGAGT",
    "PBM binding z-score": 0.391
  },
  {
    "sequence-record": "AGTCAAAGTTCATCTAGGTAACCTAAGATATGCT",
    "PBM binding z-score": 6.33
  },
  {
    "sequence-record": "TCTAGCAGGCCACAGGGTCACTCAAGAGGTACGG",
    "PBM binding z-score": 2.19
  },
  {
    "sequence-record": "GGAACGAGGGGAAAGTTGATAGCATCTGTCGACG",
    "PBM binding z-score": 4.27
  },
  {
    "sequence-record": "CCTACTTGGTCAGGAGGTCACACACCGGATATGA",
    "PBM binding z-score": 3.39
  },
  {
    "sequence-record": "CATACTGGGCCAAAAAGGTCATTGATGCCGATAA",
    "PBM binding z-score": 2.82
  },
  {
    "sequence-record": "CGTCCAAGCTCAAAGGTCAGTGAAGAGATGACGG",
    "PBM binding z-score": 3.03
  }
]

Record TTGCCAAGGTGAAGGTCGTTGATCCCTCTGTAGA , field PBM binding z-score: 0.85

Measured PBM binding z-score of ATTTCTAGGTAAAGTTCAGTGAAAGATCGATAGA : 3.19

* * *

system: RXRa homodimer (NR concentration 180 nM); experiment: PBM binding z-score (relative to random genomic background probes); higher = stronger binding; sequences stand for … in GC…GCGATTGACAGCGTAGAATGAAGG
Give 1 when the value for PBM binding z-score is at least 2. Give -1 when it is less.

Is the recorded value of PBM binding z-score equal to or greater than 2 for this sequence? CCGGGTAGGTTATGGGGCATTCAGGCAACGGTGA
-1

In plain terms: is recorded PBM binding z-score at least 2 for ACTAGCAGGCCAAGGCTCACTCAAGATTAGTCCG ?
-1

Given the entry ATAGAAAGGTCGAGGTGAGTATAGAGAAAGGGAA , answer whether its PBM binding z-score meets or surpasses 2.
1

* * *

tested on: LXRa homodimer (NR concentration 270 nM); assay: PBM binding z-score (relative to random genomic background probes); higher = stronger binding; sequences stand for … in GC…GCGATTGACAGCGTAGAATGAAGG
readout-label: PBM binding z-score

Look over these answered cases.
[
  {
    "sequence-record": "CGAACTAGGTCATCTAGGACAGTGAATACATTGA",
    "readout-label": "PBM binding z-score",
    "reported-value": 0.484
  },
  {
    "sequence-record": "GCTTACGGGTCACAGGTTATAGCATGAATAGAAT",
    "readout-label": "PBM binding z-score",
    "reported-value": -0.00317
  },
  {
    "sequence-record": "CGAACTAGGTCGGAACAGGACAGTGAAGGATGAT",
    "readout-label": "PBM binding z-score",
    "reported-value": -0.434
  },
  {
    "sequence-record": "CAAGCTAGGTCACCGGAAGGTCAAAGTCCGCATG",
    "readout-label": "PBM binding z-score",
    "reported-value": 4.88
  },
  {
    "sequence-record": "AAATGTAGGTTAGCTGGGGTCATTCAGACTAGGC",
    "readout-label": "PBM binding z-score",
    "reported-value": 3.17
  },
  {
    "sequence-record": "CGAGCTAGGTCAAGGACAGTGAATCTCCGCACGC",
    "readout-label": "PBM binding z-score",
    "reported-value": -0.283
  },
  {
    "sequence-record": "GCTTACGAGTCAAAGGTTATAGCATGAATAGAAT",
    "readout-label": "PBM binding z-score",
    "reported-value": -0.0276
  },
  {
    "sequence-record": "TATACAGGGTCAATGGCCAGAGTACGAATGTCGA",
    "readout-label": "PBM binding z-score",
    "reported-value": 1.39
  },
  {
    "sequence-record": "GCTATTAGTTGAAAGGGCAACCCAATGATTCTCG",
    "readout-label": "PBM binding z-score",
    "reported-value": 0.645
  },
  {
    "sequence-record": "TCTTGTAGATCAAGGGTTAAGAAAGCCGAAGCCT",
    "readout-label": "PBM binding z-score",
    "reported-value": -0.616
  }
]

Recorded PBM binding z-score (sequence CAAACTAAGTCAAGGTCAAAGTCGGTTTGTGCCA ): 5.4

Summary for this sequence, TTACCAAGGTGAAAGGTTGTTGATGCACGCCTTG : PBM binding z-score is -0.416

* * *

tested on: RXRa DBDmut IVT, anti-RXR (DBD mutation: RXRa K156A/R161A, NR concentration 90 nM); assay: PBM binding z-score (relative to random genomic background probes); higher = stronger binding; sequences stand for … in GC…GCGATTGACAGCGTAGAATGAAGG
Returns condition met if the recorded PBM binding z-score is greater than or equal to 1, and condition not met otherwise.

Worked examples follow.
[
  {
    "sequence-record": "AGTCAAAGTTCACCAGGTAACGTAAGATTCAGCT",
    "qualitative-label": "condition met"
  },
  {
    "sequence-record": "CCGACTGGGGGAAAGGTTACCATACTCAGTACGA",
    "qualitative-label": "condition not met"
  },
  {
    "sequence-record": "ACTATTAGTTGAGACGAGGGCACCCGATAGGTTG",
    "qualitative-label": "condition not met"
  },
  {
    "sequence-record": "CCTAGATGGTCAAGGTCACACACGCTATAGGTAC",
    "qualitative-label": "condition met"
  },
  {
    "sequence-record": "ATATGTAGGTTACATCCGGGTCGTTCAGGCTATG",
    "qualitative-label": "condition met"
  },
  {
    "sequence-record": "AGTCAAAGTTCATCTAGCTAACGTAAGATATGCT",
    "qualitative-label": "condition met"
  },
  {
    "sequence-record": "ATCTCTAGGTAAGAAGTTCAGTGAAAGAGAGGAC",
    "qualitative-label": "condition not met"
  },
  {
    "sequence-record": "GCTGCTAGGTCAACTTATGGTCAGCTAAAGCTCG",
    "qualitative-label": "condition met"
  },
  {
    "sequence-record": "TCTGCTAGGTCAGCTGGTCAGCTAACGAGCTGCC",
    "qualitative-label": "condition not met"
  },
  {
    "sequence-record": "TAGCCTAGGTCATTGGGCAAGTATAGTACGCATC",
    "qualitative-label": "condition met"
  }
]

Next sequence, please.
Determine whether this sequence has PBM binding z-score no lower than 1: ATCTCTAGGTAAGACTCAGTTCAGTGGAGAACGC
condition not met
